The measurements presented in this section are drawn from the supplement of paper PMC10567573.

B1: TRIB1 (parent)
chain: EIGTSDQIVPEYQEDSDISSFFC

Variants of: B1
procedure.summary: protein stability index of a GFP-peptide fusion (GPS, HEK-293T) (PSI 1-6); higher = more stable;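 also: lentivirally expressed fusions sorted by FACS into six bins by GFP to DsRed ratio, PSI derived from sequencing read proportions per bin multiplied by bin number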
experimental.context: c terminus: native
Entries annotated with measured protein stability index
measured.quantity: protein stability index

>>> assay_value("EIGTSDQIVPEYQELSDISSFFC [D15L]")
2.18
>>> assay_value("EIGTSDQIVPEYQEDSDIVSFFC [S19V]")
2.72
>>> assay_value("EIGTSDQIVPEYQNDSDISSFFC [E14N]")
2.94
>>> assay_value("EIGTSDWIVPEYQEDSDISSFFC [Q7W]")
4
>>> assay_value("EIGTSDQIVPEYQEDSDISHFFC [S20H]")
3.57
>>> assay_value("EIGTSDQIVPEYQEDSYISSFFC [D17Y]")
2.99
>>> assay_value("EGGTSDQIVPEYQEDSDISSFFC [I2G]")
3.58
>>> assay_value("EIGTSDQIVPEYQEDSDISSFPC [F22P]")
4.55
>>> assay_value("EIGTSDQIQPEYQEDSDISSFFC [V9Q]")
5.78
>>> assay_value("EIGTSDQIVPEYQEDKDISSFFC [S16K]")
3.5
>>> assay_value("EIGTYDQIVPEYQEDSDISSFFC [S5Y]")
1.73
>>> assay_value("EIGTSAQIVPEYQEDSDISSFFC [D6A]")
4.92
>>> assay_value("EIGTSDQIVPEYQEDLDISSFFC [S16L]")
2.65
>>> assay_value("EIGTKDQIVPEYQEDSDISSFFC [S5K]")
3.47
>>> assay_value("EIGTSDQIVPEYQEDSDISSVFC [F21V]")
3.89
>>> assay_value("EIGFSDQIVPEYQEDSDISSFFC [T4F]")
3.18
>>> assay_value("EIGTSDQIVPEDQEDSDISSFFC [Y12D]")
5.11
>>> assay_value("EIGTSDQIVYEYQEDSDISSFFC [P10Y]")
4.71
>>> assay_value("EIGTSDEIVPEYQEDSDISSFFC [Q7E]")
5.58
>>> assay_value("EIGTSDIIVPEYQEDSDISSFFC [Q7I]")
4.95
>>> assay_value("EIGTSDQIVPEYQEDSDSSSFFC [I18S]")
3.64
>>> assay_value("HIGTSDQIVPEYQEDSDISSFFC [E1H]")
1.97
>>> assay_value("EIGTSDQIVPEYQEISDISSFFC [D15I]")
2.28
>>> assay_value("EIGTSDQIVPEYQEDSDISIFFC [S20I]")
2.32
>>> assay_value("EIGTSDQIVPEYQEDSDISWFFC [S20W]")
2.35
>>> assay_value("EIGTMDQIVPEYQEDSDISSFFC [S5M]")
2.56
>>> assay_value("EIGTSDQPVPEYQEDSDISSFFC [I8P]")
5.36
>>> assay_value("EIRTSDQIVPEYQEDSDISSFFC [G3R]")
2.31
>>> assay_value("EIGTSDQCVPEYQEDSDISSFFC [I8C]")
3.62
>>> assay_value("ERGTSDQIVPEYQEDSDISSFFC [I2R]")
2.59
>>> assay_value("EIGTSDQIVPEYQEDQDISSFFC [S16Q]")
3.32
>>> assay_value("EIGSSDQIVPEYQEDSDISSFFC [T4S]")
2.87
>>> assay_value("EIGTSIQIVPEYQEDSDISSFFC [D6I]")
4.07
>>> assay_value("EIGTIDQIVPEYQEDSDISSFFC [S5I]")
2.95
>>> assay_value("EIGTSDQIVPEYQEDSDMSSFFC [I18M]")
3.29
>>> assay_value("EIGTSDQIVPEYEEDSDISSFFC [Q13E]")
2.77
>>> assay_value("EIGTSDQIVPEYQEKSDISSFFC [D15K]")
3.42
>>> assay_value("EIGTSDQIVPEYQEDSDISSFFK [C23K]")
4.49
>>> assay_value("EIGTSDDIVPEYQEDSDISSFFC [Q7D]")
5.53
>>> assay_value("EIGTSDQIVPEYQEDSDIPSFFC [S19P]")
2.94
>>> assay_value("EDGTSDQIVPEYQEDSDISSFFC [I2D]")
4.01
>>> assay_value("EIGTSDQIVPEYQEDSDCSSFFC [I18C]")
3.16
>>> assay_value("EIGTSDQIVPEYQEDSDISSEFC [F21E]")
4.43
>>> assay_value("EIHTSDQIVPEYQEDSDISSFFC [G3H]")
2.63
>>> assay_value("EIGTSDQIVPEYAEDSDISSFFC [Q13A]")
2.54
>>> assay_value("EIGTSDQIVPEYDEDSDISSFFC [Q13D]")
2.9
>>> assay_value("EIWTSDQIVPEYQEDSDISSFFC [G3W]")
2.18
>>> assay_value("EIMTSDQIVPEYQEDSDISSFFC [G3M]")
2.83
